Sourced from patent US11654199B2

- TARGET OF ASSAY: human TLR7 (Homo sapiens)
- Sequence (Q9NYK1 27-1049): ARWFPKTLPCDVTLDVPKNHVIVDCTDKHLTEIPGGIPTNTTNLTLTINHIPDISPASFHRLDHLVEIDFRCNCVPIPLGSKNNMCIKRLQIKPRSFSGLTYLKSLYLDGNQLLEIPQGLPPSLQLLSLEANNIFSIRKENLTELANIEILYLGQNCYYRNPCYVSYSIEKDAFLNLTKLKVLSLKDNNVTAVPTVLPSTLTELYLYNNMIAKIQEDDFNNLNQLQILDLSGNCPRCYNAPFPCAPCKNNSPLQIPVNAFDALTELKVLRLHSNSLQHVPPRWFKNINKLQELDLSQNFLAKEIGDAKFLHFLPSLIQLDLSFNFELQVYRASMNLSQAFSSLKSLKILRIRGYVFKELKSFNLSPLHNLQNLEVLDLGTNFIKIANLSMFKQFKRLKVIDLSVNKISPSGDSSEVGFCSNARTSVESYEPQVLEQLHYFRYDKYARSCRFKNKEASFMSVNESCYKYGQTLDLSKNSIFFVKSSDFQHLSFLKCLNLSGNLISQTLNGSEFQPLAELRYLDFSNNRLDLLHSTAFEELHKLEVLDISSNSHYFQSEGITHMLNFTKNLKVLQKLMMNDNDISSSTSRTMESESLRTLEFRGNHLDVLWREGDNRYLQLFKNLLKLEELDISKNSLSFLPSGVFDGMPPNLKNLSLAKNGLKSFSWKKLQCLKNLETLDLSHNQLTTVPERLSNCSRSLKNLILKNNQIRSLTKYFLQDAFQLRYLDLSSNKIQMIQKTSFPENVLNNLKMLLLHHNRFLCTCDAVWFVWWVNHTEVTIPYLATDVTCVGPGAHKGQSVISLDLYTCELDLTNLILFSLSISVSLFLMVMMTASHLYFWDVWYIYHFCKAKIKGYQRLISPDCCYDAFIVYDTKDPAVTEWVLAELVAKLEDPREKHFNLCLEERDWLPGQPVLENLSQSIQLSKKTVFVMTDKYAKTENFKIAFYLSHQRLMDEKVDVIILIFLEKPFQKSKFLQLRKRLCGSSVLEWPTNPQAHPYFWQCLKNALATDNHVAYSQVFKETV
- ASSAY SUMMARY: HEK293 NFKB reporter assay, human TLR7
- ASSAY CONDITIONS: HEK293 NFKB reporter cells expressing human TLR7; read-out: HEK293 hTLR7 EC50
- Description: Each compound was synthesized, purified, and characterized by mass spectrometry and shown to have the mass indicated. Additional experimental procedures are found in the Examples. Activity against HEK293 NFKB reporter cells expressing human TLR7 or human TLR8 was measured according to Example 202. HEK293 reporter cells expressing human TLR7 or human TLR8 were purchased from Invivogen and vendor protocols were followed for cellular propagation and experimentation. […]
RECORDED ENDPOINT: EC50 (µM)

response.value for CCON(C(=O)C1=Cc2sc(CC3CN(C(=O)OC(C)(C)C)C3)cc2N=C(N)C1)C(C)CC (centres unmarked) [TAZ-254] (field: EC50) = 8.13

P. CCCN(CCC)C(=O)C1=Cc2sc(CCCCCNC(=O)CCOC)cc2N=C(N)C1 [TAZ-108]
Q. CCCN(CCCNC(=O)OC1CCC1)C(=O)C1=Cc2sc(CN3Cc4ccc(NC(=O)CCN)cc4C3)cc2N=C(N)C1 [TAZ-189]
**Q:** In the pair P and Q , the larger recorded EC50 belongs to which? Write the label of whichever entry you select.
**A:** Q

----------
- TARGET OF ASSAY: UniProt:Q9NYK1
- ASSAY SUMMARY: HEK293 NFKB reporter assay, human TLR7
- ASSAY CONDITIONS: HEK293 NFKB reporter cells expressing human TLR7; read-out: HEK293 hTLR7 EC50
RECORDED ENDPOINT: EC50 (µM)

Study these solved cases before continuing.
response.value for CCCN(CCC)C(=O)C1=Cc2sc(CN)cc2N=C(N)C1 (field: EC50) = 4.95

response.value for CCCN(OCC)C(=O)C1=Cc2sc(CN3CC(C(=O)OC(C)(C)C)C3)cc2N=C(N)C1 (field: EC50) = 1.27

response.value for CCCN(Cc1ccc(CN)nc1C(F)(F)F)C(=O)C1=Cc2sccc2N=C(N)C1 (field: EC50) = 6.61

a. CCCN(CCC)C(=O)C1=Cc2sc(CCCCCN(C)C)cc2N=C(N)C1
b. CCCN(C(=O)C1=Cc2sc(CCCCCN)cc2N=C(N)C1)C1CC1
**Q:** In the pair a and b , the larger recorded EC50 belongs to which? Write the label of whichever entry you select.
**A:** b

----------
- TARGET OF ASSAY: human TLR8 (Homo sapiens)
- Sequence (Q9NR97 27-1041): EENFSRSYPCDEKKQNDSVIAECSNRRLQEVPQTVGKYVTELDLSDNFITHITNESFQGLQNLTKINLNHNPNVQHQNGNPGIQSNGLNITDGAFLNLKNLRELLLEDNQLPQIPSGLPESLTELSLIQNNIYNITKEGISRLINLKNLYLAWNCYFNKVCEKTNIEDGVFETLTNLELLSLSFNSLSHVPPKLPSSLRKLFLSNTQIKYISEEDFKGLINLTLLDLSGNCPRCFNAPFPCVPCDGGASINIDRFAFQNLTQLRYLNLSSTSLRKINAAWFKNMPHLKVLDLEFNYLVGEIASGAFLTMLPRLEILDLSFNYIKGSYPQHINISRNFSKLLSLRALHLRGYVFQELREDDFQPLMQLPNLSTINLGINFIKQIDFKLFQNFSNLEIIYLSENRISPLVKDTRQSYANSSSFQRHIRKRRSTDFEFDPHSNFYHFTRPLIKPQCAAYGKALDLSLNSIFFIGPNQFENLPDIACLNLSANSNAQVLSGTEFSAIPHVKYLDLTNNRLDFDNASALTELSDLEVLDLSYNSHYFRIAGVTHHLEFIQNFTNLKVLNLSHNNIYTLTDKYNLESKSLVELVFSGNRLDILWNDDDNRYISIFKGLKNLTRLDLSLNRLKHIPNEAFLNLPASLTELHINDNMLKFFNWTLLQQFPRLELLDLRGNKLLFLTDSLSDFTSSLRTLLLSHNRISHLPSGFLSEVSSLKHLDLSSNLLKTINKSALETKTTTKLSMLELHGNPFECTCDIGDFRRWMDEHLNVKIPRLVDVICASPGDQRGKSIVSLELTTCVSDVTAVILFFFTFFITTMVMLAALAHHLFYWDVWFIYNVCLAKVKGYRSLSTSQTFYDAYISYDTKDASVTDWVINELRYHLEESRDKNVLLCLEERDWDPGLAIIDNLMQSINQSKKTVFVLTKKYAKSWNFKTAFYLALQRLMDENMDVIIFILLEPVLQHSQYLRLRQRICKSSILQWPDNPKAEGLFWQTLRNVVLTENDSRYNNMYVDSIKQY
- ASSAY SUMMARY: HEK293 NFKB reporter assay, human TLR8
- ASSAY CONDITIONS: HEK293 NFKB reporter cells expressing human TLR8; read-out: HEK293 hTLR8 EC50
RECORDED ENDPOINT: EC50

Entry CCCN(CCC)C(=O)C1=Cc2sc(CCCCNC(=O)OC(C)(C)C)cc2N=C(N)C1 , tested on human TLR8 (Homo sapiens), has a reported EC50 of > 9 µM

More entries:
Entry CCCN(CCC)C(=O)C1=Cc2sc(S(=O)(=O)NCCCNC(=O)OC(C)(C)C)cc2N=C(N)C1 , tested on human TLR8 (Homo sapiens), has a reported EC50 of > 9 µM

Entry CCCN(CC12CC(CN(C)C)(C1)C2)C(=O)C1=Cc2sccc2N=C(N)C1 , tested on human TLR8 (Homo sapiens), has a reported EC50 of > 9 µM
